Target: T1, Axl (Homo sapiens, UniProt P30530)
T1 sequence (P30530 26-451 limits assumed): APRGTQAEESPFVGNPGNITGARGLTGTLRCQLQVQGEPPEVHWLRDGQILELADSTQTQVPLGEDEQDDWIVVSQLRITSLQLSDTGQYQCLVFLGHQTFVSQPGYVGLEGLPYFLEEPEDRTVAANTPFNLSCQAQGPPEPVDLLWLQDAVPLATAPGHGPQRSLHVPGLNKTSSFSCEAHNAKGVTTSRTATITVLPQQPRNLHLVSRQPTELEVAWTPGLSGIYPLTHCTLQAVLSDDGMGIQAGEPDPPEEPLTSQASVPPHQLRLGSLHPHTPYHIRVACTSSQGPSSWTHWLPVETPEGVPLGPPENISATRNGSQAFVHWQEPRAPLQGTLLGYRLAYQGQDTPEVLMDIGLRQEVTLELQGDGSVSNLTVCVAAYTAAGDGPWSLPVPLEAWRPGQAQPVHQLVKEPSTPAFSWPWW
Assay: Affinity ELISA of CPE mutant antibodies for binding to Axl at pH 6.0 over pH 7.4
Conditions: heavy chain variable region mutants; 1:3 dilution
Measured Parameter: Affinity ELISA CPE mutant ratio (1:3, pH 6.0/7.4)

Molecule	Value Measured
HC-M107F (antibody, V domains shown) VH: EVQLVQSGAEVKKPGATVKISCKVSGYSFTGHTMNWIRQPPGKGLEWIGLIKPSNGGTSYNQKFKGRVTISADKSISTAYLQWSSLKASDTAMYYCAHGHYESYFAFDYWGQGTLVTVSS VL: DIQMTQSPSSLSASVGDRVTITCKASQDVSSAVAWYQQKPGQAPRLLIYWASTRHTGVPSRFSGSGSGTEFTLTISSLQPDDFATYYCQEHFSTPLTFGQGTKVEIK	20.579
HC-Y104P (antibody, V domains shown) VH: EVQLVQSGAEVKKPGATVKISCKVSGYSFTGHTMNWIRQPPGKGLEWIGLIKPSNGGTSYNQKFKGRVTISADKSISTAYLQWSSLKASDTAMYYCAHGHYESPFAMDYWGQGTLVTVSS VL: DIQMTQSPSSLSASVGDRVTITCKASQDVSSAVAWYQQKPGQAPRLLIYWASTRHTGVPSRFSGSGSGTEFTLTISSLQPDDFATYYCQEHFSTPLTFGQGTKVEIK	2.535
HC-A106Y (antibody, V domains shown) VH: EVQLVQSGAEVKKPGATVKISCKVSGYSFTGHTMNWIRQPPGKGLEWIGLIKPSNGGTSYNQKFKGRVTISADKSISTAYLQWSSLKASDTAMYYCAHGHYESYFYMDYWGQGTLVTVSS VL: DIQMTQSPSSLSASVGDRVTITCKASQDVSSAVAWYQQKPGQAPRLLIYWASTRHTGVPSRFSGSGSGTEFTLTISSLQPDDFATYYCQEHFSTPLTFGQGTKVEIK	3.293
HC-E102N (antibody, V domains shown) VH: EVQLVQSGAEVKKPGATVKISCKVSGYSFTGHTMNWIRQPPGKGLEWIGLIKPSNGGTSYNQKFKGRVTISADKSISTAYLQWSSLKASDTAMYYCAHGHYNSYFAMDYWGQGTLVTVSS VL: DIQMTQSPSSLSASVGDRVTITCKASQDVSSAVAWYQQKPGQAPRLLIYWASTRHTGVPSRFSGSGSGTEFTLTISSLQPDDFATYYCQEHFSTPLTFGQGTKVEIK	1.520
HC-T030A (antibody, V domains shown) VH: EVQLVQSGAEVKKPGATVKISCKVSGYSFAGHTMNWIRQPPGKGLEWIGLIKPSNGGTSYNQKFKGRVTISADKSISTAYLQWSSLKASDTAMYYCAHGHYESYFAMDYWGQGTLVTVSS VL: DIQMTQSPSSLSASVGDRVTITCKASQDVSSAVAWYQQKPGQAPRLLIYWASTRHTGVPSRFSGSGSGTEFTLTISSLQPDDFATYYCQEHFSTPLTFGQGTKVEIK	1.292

Numbers sourced from patent US20250276075A1.
